Test system: NCI-H23 lung
Experiment: NCI-60 one-dose screen, 48 h
Conditions: 10 µM unless noted
The panel holds about 83,000 compounds, 20% with a hit somewhere; the sample as a whole holds those more often. The source made the active and inactive calls. The calls were made as follows: active = growth percent below 10; inactive = the rest.
Select the matching outcome among active, inactive

Query :: Answer briefly: the call reported for Cc1nn(-c2ccccc2)c2ncn(CC(=O)N/N=C/c3ccccc3O)c(=O)c12 in this assay.
Result :: inactive

Query :: Recorded call for Cc1ccc(C(=O)Nc2cc(-n3cnc(F)c3)cc(C(F)(F)F)c2)cc1C#Cc1cnc2cccnn12 ?
Result :: inactive

Query :: What classification did O=C(/C=C1\C(=O)N(Cc2ccccc2)c2ccccc21)c1cc2ccccc2oc1=O end up with in this test?
Result :: inactive

Query :: Outcome logged for Nc1nn2c(-c3cc4cc(Br)ccc4oc3=O)ccnc2c1N=Nc1ccccc1 in this assay:
Result :: active

Query :: How was CCOC(=O)c1ccc(NC(=S)NC(=O)c2ccc(NC(=O)C(C)C)cc2OC)cc1 classified in this test?
Result :: inactive

Query :: Called result for CN1C(=O)/C(=C/c2ccco2)S/C1=N/c1nccs1
Result :: inactive

Query :: Give the logged outcome of this assay for the following molecule: Cc1ccc(C(=O)Nc2cc(-c3ccccc3)cc(C(F)(F)F)c2)cc1C#Cc1cnc2cccnn12
Result :: inactive

Query :: Which outcome did this test record for the molecule OCCn1cc(-c2nc3ccc4[nH]ncc4c3c3c2CCCC3)cn1 ?
Result :: inactive

Query :: Dear colleague, could you share the recorded outcome for CCN1C(=O)N(CC)C2NNC(Sc3c(C(=O)O)c4ccccc4n(CC(C)C)c3=O)=NC21 (centres undefined) when you have a moment?
Result :: inactive

Query :: Query: recorded result category for O=C(N/N=C/c1ccc(-c2cccc([N+](=O)[O-])c2)s1)c1[nH]c2ccc(Br)cc2c1-c1ccccc1 in this test
Result :: inactive

Query :: Hi, sorry to bother you, what did the test record for CN(C)c1nc(NCCNS(=O)(=O)c2ccc(C(=O)/C=C/c3ccc(F)cc3)cc2)nc(N2CCOCC2)n1 ?
Result :: inactive

Query :: Check the results log: what was the call for COc1ccc(NC(=O)CSc2nnc(-c3ccc(-c4nc5ccc(Cl)cc5[nH]4)cc3)o2)cc1 ?
Result :: active

Query :: Recorded test call requested for COc1ccc(NC2=C(I)C(=O)C(C)=C(C)C2=O)cc1
Result :: inactive

Query :: Please share the test call associated with CC[C@]12C=CCN3CC[C@]4(C(=C(C(=O)OC)C1)Nc1cc(OC)c([C@@H]5[C@H]6O[C@H]6[C@@]6(CC)CC(C(=O)OC)=C7Nc8cc(O)ccc8[C@@]78CCN5[C@@H]68)cc14)[C@@H]32 .
Result :: active

Query :: Assay outcome for C=CC[n+]1cccc2c3ccccc3ccc21 : what was it?
Result :: inactive

Query :: Outcome? C#CCCCNCCNc1ccnc2cc(Cl)ccc12
Result :: inactive

Query :: What classification did O=C1NC(=S)/C(=C/c2cn(-c3ccccc3)nc2-c2ccccc2)S1 end up with in this test?
Result :: inactive

Query :: Record lookup: outcome of this test for N#CCc1nnc(NC(=O)c2ccc(-n3c(=O)[nH]c4ccccc4c3=O)cc2)s1 ?
Result :: inactive

Query :: What did the test return for O=C(c1ccc(Cl)cc1)C1[C@H](c2ccccc2Cl)[C@@H](c2ccccc2)NC12C(=O)Nc1ccc(Br)cc12 (some centres undefined) ?
Result :: active
